- system tested: UniProt:P33033
- Sequence (P33033 whole entry): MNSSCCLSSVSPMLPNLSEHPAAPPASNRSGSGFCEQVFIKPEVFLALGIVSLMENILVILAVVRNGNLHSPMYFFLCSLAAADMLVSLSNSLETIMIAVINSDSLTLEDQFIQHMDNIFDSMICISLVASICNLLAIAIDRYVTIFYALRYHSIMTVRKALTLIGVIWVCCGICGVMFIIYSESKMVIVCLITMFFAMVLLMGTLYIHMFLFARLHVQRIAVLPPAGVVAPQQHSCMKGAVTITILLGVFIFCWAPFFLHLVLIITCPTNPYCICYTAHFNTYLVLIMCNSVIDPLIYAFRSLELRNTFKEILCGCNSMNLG
- experiment description: Activity in mouse melanocortin-3 receptor (mMC3R) stably expressed in HEK293 cells
- Assay type: cell-based
pEC50: −log10 of the molar value.
assay readout: pEC50

Reference set, count: 2
INSERT INTO results (compound, assay_readout, result) VALUES
  ('CC(=O)N[C@@H](Cc1c[nH]cn1)C(=O)N[C@H](Cc1ccccc1)C(=O)N[C@@H](CCCN=C(N)N)C(=O)N[C@@H](C)C(N)=O', 'pEC50', '< 4.00'),
  ('CC(=O)N[C@@H](Cc1cnc[nH]1)C(=O)N[C@H](Cc1ccccc1)C(=O)N[C@@H](CCCN=C(N)N)C(=O)N1Cc2ccccc2C[C@@H]1C(N)=O', 'pEC50', '< 4.00');

Item CC(=O)N[C@@H](Cc1cnc[nH]1)C(=O)NC(Cc1ccccc1)C(=O)N[C@@H](CCCNC(=N)N)C(=O)N[C@H](Cc1ccncc1)C(N)=O (stereo in doubt) has what recorded pEC50?
< 4.00

----------
- system tested: UniProt P56450
- Sequence (P56450 whole entry): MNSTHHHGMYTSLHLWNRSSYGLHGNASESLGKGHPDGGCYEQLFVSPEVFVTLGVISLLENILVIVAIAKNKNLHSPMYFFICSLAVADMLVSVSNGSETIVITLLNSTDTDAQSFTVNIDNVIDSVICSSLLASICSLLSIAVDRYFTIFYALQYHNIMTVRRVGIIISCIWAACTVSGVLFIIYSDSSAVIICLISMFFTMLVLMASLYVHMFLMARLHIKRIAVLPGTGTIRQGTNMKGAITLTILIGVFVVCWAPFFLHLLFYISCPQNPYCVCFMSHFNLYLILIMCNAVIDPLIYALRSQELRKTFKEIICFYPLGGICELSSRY
- experiment description: Activity in mouse melanocortin-4 receptor stably expressed in HEK293 cells
- Assay type: cell-based
Reported EC50 values for a set of compounds
Report as a plain number; the unit µM is understood.

// known answers, use as guide
INSERT INTO assay_data (compound, system_tested, u, numeric_value) VALUES
  ('CC(=O)N[C@@H](Cc1cnc[nH]1)C(=O)NC(Cc1ccccc1)C(=O)N[C@@H](CCCNC(=N)N)C(=O)NC(C(N)=O)C(c1ccccc1)c1ccccc1 (stereo in doubt)', 'UniProt P56450', 'µM', 7.8),
  ('CC(=O)N[C@@H](Cc1c[nH]cn1)C(=O)N[C@H](Cc1ccccc1)C(=O)N[C@@H](CCCN=C(N)N)C(=O)N[C@H](C(N)=O)C(c1ccccc1)c1ccccc1', 'UniProt P56450', 'µM', 11.6),
  ('CC(=O)N[C@@H](Cc1c[nH]cn1)C(=O)N[C@H](Cc1ccccc1)C(=O)N[C@@H](CCCN=C(N)N)C(=O)N[C@@H](C)C(N)=O', 'UniProt P56450', 'µM', 43.7);

Please report the recorded EC50 for CC(=O)N[C@@H](Cc1c[nH]cn1)C(=O)N[C@H](Cc1ccccc1)C(=O)N[C@@H](CCCN=C(N)N)C(=O)N[C@@H](Cc1ccccc1)C(N)=O .
7.8
